Recorded CC50 values for a group of compounds are listed next.
- System: LNCaP human prostate cancer cells
- assay-notes: Differential nuclear staining
- Assay type: cell-based

{"compound": "Cc1ccc(C(C)C)cc1.Cc1ccc(C(C)C)cc1.[Cl][Ru][Cl].[Cl][Ru][Cl] [Compound C3, [Ru(p-cymene)Cl2]2]", "CC50, µM": 29}
{"compound": "C[SH](C)(=O)[Ru-]([Cl])([Cl])([Cl])([Cl])[SH](C)(C)=O.[Na+] [Compound C1, Na[trans-RuCl4(DMSO)2]]", "CC50, µM": 46.5}

====

- Tested on: DU145 human prostate carcinoma cells
- assay-notes: Differential nuclear staining
- Format: cell-based

{"compound": "Cc1ccc(C(C)C)cc1.Cc1ccc(C(C)C)cc1.[Cl][Ru][Cl].[Cl][Ru][Cl] [Compound C3, [Ru(p-cymene)Cl2]2]", "CC50 [µM]": 218}
